- Test system: Enterococcus faecalis
- method: Antibacterial activity against drug-resistant Enterococcus faecalis by microbroth dilution method
- Format: functional
observation.type: MIC (µM)
All answers are understood in µM, so give the number only.

> print(dat)
                           substance.smiles          target.system  reported.measurement
1  CC(=O)Cn1cc(-c2csc(N)n2)c(=O)c2cc(F)ccc21  Enterococcus faecalis                   807
2  C/C(Cn1cc(-c2csc(C)n2)c(=O)c2cc(F)c(F)cc21)=N\NC(N)=S  Enterococcus faecalis                   629

--- query ---
Reported MIC for `CC(=O)Cn1cc(C(C)=O)c(=O)c2cc(F)c(Cl)cc21` : what is it?
868
